Reported pIC50 values follow for various molecules
- Test system: LNCaP
- protocolDetails: Inhibition of cell growth was determined in LNCaP cell line of human prostate tumor using MTT assay, on day 6 after treatment
- Format: functional
- cond: 144 h, read-out: ID50 (the source's name)
Please keep in mind that pIC50 is minus log10 of the molar concentration; only the number is needed.

Observe how each entry below is paired with its result.
- CCNCCCCNC/C=C\CNCCCCNCCCCNCC: 7.05
- CCNC/C=C\CNC/C=C\CNCCCCNC/C=C\CNCC: 6.49
- CCNCCCCNC/C=C\CNC/C=C\CNCCCCNCC: 6.82
- CCNC/C=C\CNCCCCNCCCCNCCCCNCC: 6.85
- CCNC/C=C\CNC/C=C\CNCCCCNCCCCNCC: 6.82
- CCNC/C=C\CNC/C=C\CNC/C=C\CNC/C=C\CNCC: 6.26

Record lookup: for LNCaP, what pIC50 belongs to `CCNC/C=C\CNC/C=C\CNC/C=C\CNCCCCNCC` ? 6.62

Try this molecule next: `CCNC/C=C\CNCCCCNCCCCNC/C=C\CNCC` 6.52

Try this molecule next: `CCNC/C=C\CNCCCCNC/C=C\CNCCCCNCC` 6.27
